Numbers sourced from ChEMBL document CHEMBL3779798.

experiment: Anticancer activity against human DU145 cells assessed as inhibition of cell growth after 72 hrs by MTT assay; format: functional, cell-based; settings: DU-145, 72 h
Field: pIC50. Provide a value for each of the compounds that follow.
Conceptually, pIC50 converts a concentration in mol/L into minus its log10.

GET /value?item= N=C(N)[Se]Cc1ccc2ccccc2n1 &field=pIC50 returns 5.14

GET /value?item= COc1cc2oc(=O)cc(C[Se]C(=N)N)c2cc1OC &field=pIC50 returns 5.17

GET /value?item= Br.Br.N=C(N)[Se]Cc1nc2ccccc2nc1C[Se]C(=N)N &field=pIC50 returns 6.00

* * *

experiment: Anticancer activity against human DU145 cells assessed as inhibition of cell growth after 72 hrs by MTT assay; format: functional, cell-based; details: DU-145, 72 h
Recorded Metric: pIC50
Conceptually, pIC50 converts a concentration in mol/L into minus its log10.

GET /value?item= N=C(N)[Se]Cc1ccc2c(c1)C(=O)c1ccccc1C2=O &field=pIC50 returns 5.09

GET /value?item= N=C(N)[Se]Cc1ccc([N+](=O)[O-])o1 &field=pIC50 returns 4.81

GET /value?item= N=C(N)[Se]Cc1c2ccccc2nc2ccccc12 &field=pIC50 returns 4.89

GET /value?item= N=C(N)[Se]CN1C(=O)c2ccccc2C1=O &field=pIC50 returns 5.16

GET /value?item= N=C(N)SCc1ccc(-n2cccc2)cc1 &field=pIC50 returns 4.50

GET /value?item= N=C(N)SCc1ccc2ccccc2n1 &field=pIC50 returns 4.50

GET /value?item= Cc1noc(C)c1C[Se]C(=N)N &field=pIC50 returns 5.13

GET /value?item= N=C(N)SCc1ccc2c(c1)C(=O)c1ccccc1C2=O &field=pIC50 returns 4.51
